experiment: Phase 1 single-rising dose (SRD, Part 1) plasma PK in healthy subjects; format: in vivo, human; details: both sexes, human, plasma, po, 5 mg, single oral 5 mg; median, N = 6; read-out: tmax
Endpoint: Tmax (h)
Respond numerically; units are h and should not be typed.

So what does the record say about Tmax for CC1=CN2CCS(=O)(=O)N=C2C(c2ccc(OC3CCCCC3)cc2)=N1 ? 2.75

###

test: 14-day rat neurotoxicology study: toxicokinetics; format: in vivo, Sprague-Dawley rats; settings: male, Sprague-Dawley, rat, plasma, po, 50 mg/kg/day, 50 mg/kg/day oral, male, Day 2
Endpoint: Cmax (ng/mL)
Give the number; ng/mL is assumed, so skip it.

If you can, please state the reported Cmax value of CC1=CN2CCS(=O)(=O)N=C2C(c2ccc(OC3CCCCC3)cc2)=N1 . 836

###

test: Phase 1 single-rising dose (SRD, Part 1) plasma PK in healthy subjects; type: in vivo, human; conditions: both sexes, human, plasma; single oral 0.3 mg; mean, N = 6; read-out: Vz/F
Endpoint: Vd/F (L)
Write it as a number; the unit L goes unstated.

Consider the compound CC1=CN2CCS(=O)(=O)N=C2C(c2ccc(OC3CCCCC3)cc2)=N1 [COMPOUND A] and give its measured Vd/F. 98.8

###

test: Phase 1 SRD/multiple-rising dose (MRD, Part 2) plasma PK in healthy subjects; type: in vivo, human; conditions: both sexes, human, plasma, oral, 0.3 mg, 0.3 mg QD, Study Day 6; mean; read-out: Cmax
Endpoint: Cmax (ng/mL)
Express it in ng/mL; write the number only.

Any idea what Cmax was measured for CC1=CN2CCS(=O)(=O)N=C2C(c2ccc(OC3CCCCC3)cc2)=N1 ? 3.07

###

assay: Phase 1 SRD/multiple-rising dose (MRD, Part 2) plasma PK in healthy subjects; type: in vivo, human; conditions: both sexes, human, plasma, oral; 6 mg QD cohort, Study Day 1; mean
Endpoint: AUC(0-t)

Look up AUC(0-t): CC1=CN2CCS(=O)(=O)N=C2C(c2ccc(OC3CCCCC3)cc2)=N1 1960 ng·h/mL

###

Assay: Phase 1 SRD/multiple-rising dose (MRD, Part 2) plasma PK in healthy subjects
Type: in vivo, human
Settings: both sexes, human, plasma, oral; 9 mg QD cohort, Study Day 1; mean; read-out: Vz/F
Method: The study was designed to assess the safety, tolerability, PK, and PD of COMPOUND A. A total of 88 subjects were enrolled in 6 SRD and 5 SRD/MRD cohorts (n=8 per cohort). The study was composed of 2 parts. […] Referring now to FIG. 3, mean plasma concentration-time profiles (linear and semilog scales) of COMPOUND A were determined on Day 18 following oral administration of COMPOUND A QD for 13 days.
Endpoint: Vd/F (L)
Only the number, expressed in L, is required.

Entry CC1=CN2CCS(=O)(=O)N=C2C(c2ccc(OC3CCCCC3)cc2)=N1 has what Vd/F? 119

###

experiment: Phase 1 SRD/multiple-rising dose (MRD, Part 2) plasma PK in healthy subjects; assay type: in vivo, human; settings: both sexes, human, plasma, oral, Day 18; range over the 0.3 to 9 mg QD dose range; read-out: mean AUCτ
Endpoint: AUC

What value of measured AUC is listed for CC1=CN2CCS(=O)(=O)N=C2C(c2ccc(OC3CCCCC3)cc2)=N1 ? 151 to 4600 ng·h/mL

###

experiment: Phase 1 single-rising dose (SRD, Part 1) plasma PK in healthy subjects; type: in vivo, human; conditions: both sexes, human, plasma; single oral 1 mg; mean, N = 6
Endpoint: AUC(0-t) (ng·h/mL)
I only need the number, in ng·h/mL, no unit after it.

Please look up its AUC(0-t): CC1=CN2CCS(=O)(=O)N=C2C(c2ccc(OC3CCCCC3)cc2)=N1 565

###

assay: Phase 1 SRD/multiple-rising dose (MRD, Part 2) plasma PK in healthy subjects; type: in vivo, human; details: both sexes, human, plasma, oral, 1 mg, 1 mg QD, Study Day 6; median; read-out: tmax
Endpoint: Tmax (h)
Output spec: scalar in h, unitless text.

Consider the molecule shown here: CC1=CN2CCS(=O)(=O)N=C2C(c2ccc(OC3CCCCC3)cc2)=N1 What is its recorded Tmax? 1

###

assay: Phase 1 single-rising dose (SRD, Part 1) plasma PK in healthy subjects; format: in vivo, human; details: both sexes, human, plasma; single oral 18 mg; mean, N = 6; read-out: AUC∞
Endpoint: AUC(0-inf) (ng·h/mL)
Answer with a number only, understood to be in ng·h/mL.

Param item = CC1=CN2CCS(=O)(=O)N=C2C(c2ccc(OC3CCCCC3)cc2)=N1 ; retrieve measured AUC(0-inf). 8880

###

test: Phase 1 SRD/multiple-rising dose (MRD, Part 2) plasma PK in healthy subjects; format: in vivo, human; settings: both sexes, human, plasma, oral, 6 mg, 6 mg QD, Study Day 6; median; read-out: tmax
Endpoint: Tmax
Answer as a quantity: numeral, then unit.

// returns reported Tmax for input CC1=CN2CCS(=O)(=O)N=C2C(c2ccc(OC3CCCCC3)cc2)=N1 5 h

###

Assay: Phase 1 SRD/multiple-rising dose (MRD, Part 2) plasma PK in healthy subjects
Type: in vivo, human
Settings: both sexes, human, plasma, oral, 1 mg, 1 mg QD cohort, Study Day 1; mean; read-out: Cmax
Procedure: The study was designed to assess the safety, tolerability, PK, and PD of COMPOUND A. A total of 88 subjects were enrolled in 6 SRD and 5 SRD/MRD cohorts (n=8 per cohort). The study was composed of 2 parts. […] Referring now to FIG. 3, mean plasma concentration-time profiles (linear and semilog scales) of COMPOUND A were determined on Day 18 following oral administration of COMPOUND A QD for 13 days.
Endpoint: Cmax
Returns: string containing the number followed by the unit.

What does the data say about its Cmax? Entry: CC1=CN2CCS(=O)(=O)N=C2C(c2ccc(OC3CCCCC3)cc2)=N1 7.82 ng/mL

###

experiment: 14-day rat neurotoxicology study: toxicokinetics; format: in vivo, Sprague-Dawley rats; details: male, Sprague-Dawley, rat, plasma, po, 100 mg/kg/day, 100 mg/kg/day oral, male, Day 7; read-out: AUC24
Endpoint: AUC (ng·h/mL)
Express your answer in ng·h/mL, writing the number without its unit.

Need AUC of CC1=CN2CCS(=O)(=O)N=C2C(c2ccc(OC3CCCCC3)cc2)=N1 , thanks. 13000

###

experiment: 13-week NHP GLP toxicity study: clinical signs, EEG/EMG telemetry, pathology; type: in vivo, Monkey (Macaca fascicularis); conditions: male, cynomolgus monkey, in vivo; males, oral gavage once daily, 13 weeks; read-out: no-observed-adverse-effect level (NOAEL)
Endpoint: NOAEL at 13 weeks (mg/kg/day)
Express your answer in mg/kg/day, writing the number without its unit.

# NOAEL at 13 weeks lookup, item CC1=CN2CCS(=O)(=O)N=C2C(c2ccc(OC3CCCCC3)cc2)=N1 [COMPOUND A] 10

###

Test: Phase 1 SRD/multiple-rising dose (MRD, Part 2) plasma PK in healthy subjects
Assay type: in vivo, human
Conditions: both sexes, human, plasma, oral, 9 mg, 9 mg QD, Study Day 18; median; read-out: tmax
Protocol: The study was designed to assess the safety, tolerability, PK, and PD of COMPOUND A. A total of 88 subjects were enrolled in 6 SRD and 5 SRD/MRD cohorts (n=8 per cohort). The study was composed of 2 parts. […] Referring now to FIG. 3, mean plasma concentration-time profiles (linear and semilog scales) of COMPOUND A were determined on Day 18 following oral administration of COMPOUND A QD for 13 days.
Endpoint: Tmax (h)
State the answer as a number, implicitly in h.

Fill in the blank: the reported Tmax of CC1=CN2CCS(=O)(=O)N=C2C(c2ccc(OC3CCCCC3)cc2)=N1 is ____. 3

###

experiment: 14-day rat neurotoxicology study: toxicokinetics; assay type: in vivo, Sprague-Dawley rats; details: female, Sprague-Dawley, rat, plasma, oral, 200 mg/kg/day, Day 15, female at 200 mg/kg/day with lesions visible with both HE and Fluoro-Jade; individual animal; read-out: plasma level at the time of sacrifice
Endpoint: concentration at 15 day (ng/mL)
Output spec: scalar in ng/mL, unitless text.

Look at this compound and give its reported concentration at 15 day. CC1=CN2CCS(=O)(=O)N=C2C(c2ccc(OC3CCCCC3)cc2)=N1 935

###

assay: 14-day rat neurotoxicology study: toxicokinetics; format: in vivo, Sprague-Dawley rats; conditions: female, Sprague-Dawley, rat, plasma, po, 200 mg/kg/day, 200 mg/kg/day oral, female, Day 7
Endpoint: Cmax (ng/mL)
A number alone suffices; assume ng/mL.

# Cmax lookup, item CC1=CN2CCS(=O)(=O)N=C2C(c2ccc(OC3CCCCC3)cc2)=N1 2340

###

test: Phase 1 single-rising dose (SRD, Part 1) plasma PK in healthy subjects; type: in vivo, human; conditions: both sexes, human, plasma, po, 0.3 mg, single oral 0.3 mg; median, N = 6; read-out: tmax
Endpoint: Tmax (h)
Your answer should be a plain number; it is taken to be in h.

Quick one: Tmax of CC1=CN2CCS(=O)(=O)N=C2C(c2ccc(OC3CCCCC3)cc2)=N1 ? 1.25
